# condition_details: in 1,4-dioxane, 322.8 K

| chem_smiles | solubility (mole fraction) |
| --- | --- |
| O=c1[nH]cc(F)c(=O)[nH]1 | 0.00284 |

* * *

# condition_details: in n-propanol, 313 K
attribute_measured: solubility (mole fraction)

| chem_smiles | result |
| --- | --- |
| O=c1[nH]cc(F)c(=O)[nH]1 | 0.00172 |

* * *

# condition_details: in THF, 293.2 K
attribute_measured: solubility (mole fraction)

| chem_smiles | quantitative_result |
| --- | --- |
| O=c1[nH]cc(F)c(=O)[nH]1 | 0.00289 |

* * *

# condition_details: in n-butanol, 314.8 K

| chem_smiles | solubility (mole fraction) |
| --- | --- |
| O=c1[nH]cc(F)c(=O)[nH]1 | 0.00182 |

Data credit: BigSolDB 2.1
